# System: Calreticulin
# testDetails: Calreticulin release (ER to plasma membrane translocation) screen, Nano-Glo HiBiT extracellular detection
# Type: cell-based
# conditionLabel: Homo sapiens, MDA-MB-231, MDA-MB-231 cells stably expressing Calreticulin-HiBiT; extracellular luminescence; read-out: CalR EC50
Reported log10(EC50) values for a set of compounds
propertyMeasured: log10(EC50) (log10 of the value in nM)

* Cc1cccc2c1CCN2Cc1nc2ccc(Cl)cc2c(=O)[nH]1 | 3.03
* COc1ccc2nc(CN3CC(CCO)c4ccccc43)[nH]c(=O)c2c1 (stereo not shown) | 4.03
* COc1ccc2nc(CN3CC(C(C)C)c4ccccc43)[nH]c(=O)c2c1 (stereo not shown) | 2.40
* COc1ccc(OC)c2c1CN(Cc1nc3ccc(Cl)cc3c(=O)[nH]1)CC2O (stereo not shown) | 2.65
* COc1ccc2nc(CN3CCc4ccc(F)cc43)[nH]c(=O)c2c1 | 2.51
* CN1CCCN(Cc2nc3ccc(Cl)cc3c(=O)[nH]2)c2ccccc21 | 3.59
* O=c1[nH]c(CN2CCc3ccccc32)nc2ccc(N3CCC(O)C3)cc12 (stereo not shown) | 3.96
* Cc1ccc2c(c1)CN(Cc1nc3ccc(Cl)cc3c(=O)[nH]1)CC2 | 2.94
* CN(C)c1cc2c(=O)[nH]c(CN3CCc4ccccc43)nc2cc1F | 2.34
* COc1ccc2nc(CN3CCc4c(Br)cccc4C3)[nH]c(=O)c2c1 | 3.31
* O=c1[nH]c(CN2CCc3ccccc32)nc2ccc(N3CCC3)cc12 | 2.36
* COc1cc2c(=O)[nH]c(CN3CC(C)(C)c4ccccc43)nc2cc1F | 2.18
* COc1cc(OC)c2nc(CN3CC(C)(C)c4ccccc43)[nH]c(=O)c2c1 | 3.49
* COc1cc2c(=O)[nH]c(CN3CCc4ccccc43)nc2cc1F | 2.47
* COc1cc2c(=O)[nH]c(CN3CC(C)(C)c4ccccc43)nc2cn1 | 2.90
* O=c1[nH]c(CN2CCc3ccccc32)nc2ccc(C(F)(F)F)cc12 | 3.29
* CN(C)c1ccc2nc(CN3CC(C)(C)c4ccccc43)[nH]c(=O)c2c1 | 2.30
* O=c1[nH]c(CN2CCCCc3ccccc32)nc2ccc(Cl)cc12 | 2.98
* O=c1[nH]c(CN2CCc3cc(F)ccc32)nc2ccc(Cl)cc12 | 3.34

---

propertyMeasured: melting point

• COc1ccc2nc(CN3CCc4ccccc4C3)[nH]c(=O)c2c1 = 174 to 179 °C
• CC(C)(C)OC(=O)NCCCCOc1ccc2nc(CN3CCc4ccccc43)[nH]c(=O)c2c1 = 167 to 181 °C
• CC(C)c1ccc2nc(CN3CCc4ccccc43)[nH]c(=O)c2c1 = 168 to 185 °C
• COCCCOc1ccc2nc(CN3CC(C)(C)c4ccccc43)[nH]c(=O)c2c1 = 155 to 165 °C
• CN(C)c1cc2c(=O)[nH]c(CN3CC(C)(C)c4ccccc43)nc2cn1 = 194 to 211 °C
• COc1ccc2nc(CN3CCc4c(N)cccc4C3)[nH]c(=O)c2c1 = 211 to 233 °C
• COc1cccc2c1CCN(Cc1nc3ccc(Cl)cc3c(=O)[nH]1)C2 = 205 to 212 °C
• CN(C)c1cc2c(=O)[nH]c(CN3CCc4ccccc43)nc2cc1F = 200 to 223 °C
• COc1cccc2c1N(Cc1nc3ccc(Cl)cc3c(=O)[nH]1)CCC2 = 183 to 194 °C
• COc1cccc2c1CN(Cc1nc3ccc(Cl)cc3c(=O)[nH]1)CC2 = 195 to 203 °C
• COc1cc2c(=O)[nH]c(CN3CC(C)(C)c4ccccc43)nc2cc1F = 194 to 209 °C
• CC1(C)CN(Cc2nc3ccc(C#N)cc3c(=O)[nH]2)c2ccccc21 = 187 to 197 °C
• COc1ccc2nc(CN3CCCCc4ccccc43)[nH]c(=O)c2c1 = 191 to 206 °C
• COc1ccc2nc(CN3CCc4c(F)cccc43)[nH]c(=O)c2c1 = 222 to 232 °C
• COc1ccc2nc(CN3CCc4c(C#N)cccc4C3)[nH]c(=O)c2c1 = 197 to 218 °C
• CC1CN(Cc2nc3ccc(Cl)cc3c(=O)[nH]2)c2ccccc21 (stereo not shown) = 200 to 223 °C
• CC1(C)CN(Cc2nc3ccc(Cl)cc3c(=O)[nH]2)c2ccccc21 = 163 to 176 °C
• COc1ccc2nc(CN3CCCc4cccc(F)c43)[nH]c(=O)c2c1 = 222 to 236 °C
• COc1cc2c(=O)[nH]c(CN3CCc4ccccc43)nc2cn1 = 215 to 230 °C

---

# Test system: Calreticulin
# testDetails: Calreticulin release (ER to plasma membrane translocation) screen, Nano-Glo HiBiT extracellular detection
# Format: cell-based
# conditionLabel: Homo sapiens, MDA-MB-231, MDA-MB-231 cells stably expressing Calreticulin-HiBiT; extracellular luminescence; read-out: CalR EC50
propertyMeasured: EC50 (nM)

- COc1ccc2nc(CN3CCc4c(N)cccc4C3)[nH]c(=O)c2c1: 8160
- COc1ccc2nc(CN3CCc4c(C#N)cccc4C3)[nH]c(=O)c2c1: 490
- CN(C)c1ccc2nc(CN3CCc4ccccc43)[nH]c(=O)c2c1: 253
- Cc1cccc2c1CCCN2Cc1nc2ccc(Cl)cc2c(=O)[nH]1: 730
- O=c1[nH]c(CN2CCc3ccccc32)nc2ccc(Cl)cc12: 1800
- O=c1[nH]c(CN2CCc3ccccc32)nc2cc(Cl)ccc12: 8260
- Cc1ccc2c(c1)CCN2Cc1nc2ccc(Cl)cc2c(=O)[nH]1: 2710
- COc1ccc2nc(CN3CCc4cccc(F)c43)[nH]c(=O)c2c1: 5660

---

# System: Calreticulin
# testDetails: Calreticulin release (ER to plasma membrane translocation) screen, Nano-Glo HiBiT extracellular detection
# Assay type: cell-based
# conditionLabel: MDA-MB-231 cells stably expressing Calreticulin-HiBiT; extracellular luminescence; read-out: CalR EC50
pEC50: −log10 of the molar value.
propertyMeasured: pEC50

• CC1CN(Cc2nc3ccc(Cl)cc3c(=O)[nH]2)c2ccccc21 (single isomer, unassigned) [Ex. #39] = 5.09
• CC1CN(Cc2nc3ccc(Cl)cc3c(=O)[nH]2)c2ccccc21 (single isomer, unassigned) [Ex. #38] = 6.30
• COc1ccc2nc(CN3CC(C)c4ccccc43)[nH]c(=O)c2c1 (single isomer, unassigned) [Ex. #5] = 5.64
• COc1ccc2nc(CN3CC(C)c4ccccc43)[nH]c(=O)c2c1 (single isomer, unassigned) [Ex. #4] = 6.76

---

Measured EC50 by item
# Test system: Calreticulin
# testDetails: Calreticulin release (ER to plasma membrane translocation) screen, Nano-Glo HiBiT extracellular detection
# Type: cell-based
# conditionLabel: Homo sapiens, MDA-MB-231, MDA-MB-231 cells stably expressing Calreticulin-HiBiT; extracellular luminescence; read-out: CalR EC50
propertyMeasured: EC50 (µM)

• COc1ccc2nc(CN3CC(C)c4ccccc43)[nH]c(=O)c2c1 (centres unmarked) [Ex. #3] = 0.191
• CN1CCN(Cc2nc3ccc(Cl)cc3c(=O)[nH]2)c2ccccc21 [Ex. #128] = 10.5
• Cc1cccc2c1N(Cc1nc3ccc(Cl)cc3c(=O)[nH]1)CC2 [Ex. #44] = 1.26
• COc1ccc2nc(CN3CCc4c(cccc4OC)C3)[nH]c(=O)c2c1 [Ex. #17] = 0.54
• COCC1CCN(c2ccc3nc(CN4CCc5ccccc54)[nH]c(=O)c3c2)C1 (centres unmarked) [Ex. #103] = 0.518
• COc1ccc2nc(CN3CCc4cccc(OC)c4C3)[nH]c(=O)c2c1 [Ex. #19] = 7.36
• COc1cc2c(=O)[nH]c(CN3CCc4ccccc43)nc2cn1 [Ex. #78] = 2.45
• COc1cccc2c1N(Cc1nc3ccc(Cl)cc3c(=O)[nH]1)CC2 [Ex. #49] = 7.56
• COc1ccc2c(=O)[nH]c(CN3CCc4ccccc43)nc2c1 [Ex. #86] = 2.56
• COc1ccc2c(c1)N(Cc1nc3ccc(Cl)cc3c(=O)[nH]1)CCC2 [Ex. #55] = 11.3
• COc1ccc2nc(CN3CCc4c(cccc4C(F)(F)F)C3)[nH]c(=O)c2c1 [Ex. #125] = 9.76
• COc1ccc2nc(CN3CCCc4cccc(OC)c43)[nH]c(=O)c2c1 [Ex. #13] = 1.14
• O=c1[nH]c(CN2CCc3ccccc32)nc2cc(C(F)(F)F)ccc12 [Ex. #91] = 8.11
• CC1(C)CN(Cc2nc3ccc(C#N)cc3c(=O)[nH]2)c2ccccc21 [Ex. #95] = 9.96
• COc1ccc2nc(CN3CC(C)(C)c4ccccc43)[nH]c(=O)c2c1 [Ex. #2] = 0.4
• COc1ccc2nc(CN3CCCc4cccc(F)c43)[nH]c(=O)c2c1 [Ex. #11] = 0.102
• CN(C)c1cc2c(=O)[nH]c(CN3CC(C)(C)c4ccccc43)nc2cn1 [Ex. #92] = 0.0988
• COC1CN(c2ccc3nc(CN4CCc5ccccc54)[nH]c(=O)c3c2)C1 [Ex. #101] = 10
• COc1ccc2nc(CN3CCc4c(F)cccc43)[nH]c(=O)c2c1 [Ex. #126] = 8.06
• O=c1[nH]c(CN2CCCc3ccccc32)nc2ccc(Cl)cc12 [Ex. #51] = 10.3
• CC(C)Oc1ccc2nc(CN3CCc4ccccc43)[nH]c(=O)c2c1 [Ex. #87] = 2.16
• CC(C)(C)OC(=O)NCCCCOc1ccc2nc(CN3CCc4ccccc43)[nH]c(=O)c2c1 [Ex. #90] = 5.49
• O=c1[nH]c(CN2CCc3cc(Br)ccc32)nc2ccc(Cl)cc12 [Ex. #48] = 5.96
• COCCOc1ccc2nc(CN3CC(C)(C)c4ccccc43)[nH]c(=O)c2c1 [Ex. #97] = 7.36
• CC1(C)CN(Cc2nc3cc4c(cc3c(=O)[nH]2)OCO4)c2ccccc21 [Ex. #119] = 6.16
• COc1ccc2nc(CN3CCc4c(cccc4NS(C)(=O)=O)C3)[nH]c(=O)c2c1 [Ex. #21] = 3.96
• O=c1[nH]c(CN2CCc3ccccc32)nc2ccc(OC(F)(F)F)cc12 [Ex. #82] = 1.38
• Cc1ccc2c(c1)N(Cc1nc3ccc(Cl)cc3c(=O)[nH]1)CC2 [Ex. #45] = 1.21
• COc1cccc2c1CCCN2Cc1nc2ccc(Cl)cc2c(=O)[nH]1 [Ex. #52] = 1.26
• O=c1[nH]c(CN2CCCOc3ccccc32)nc2ccc(Cl)cc12 [Ex. #64] = 2.46
• COc1ccc2nc(CN3CCc4ccccc43)[nH]c(=O)c2c1 [Ex. #1] = 0.231
• Cc1ccc2c(c1)N(Cc1nc3ccc(Cl)cc3c(=O)[nH]1)CCC2 [Ex. #127] = 6.96
• COc1cccc2c1N(Cc1nc3ccc(Cl)cc3c(=O)[nH]1)CCC2 [Ex. #54] = 1.76
• O=c1[nH]c(CN2CCOc3ccccc32)nc2ccc(Cl)cc12 [Ex. #57] = 14.2
• O=c1[nH]c(CN2CCc3ccccc32)nc2cc(F)ccc12 [Ex. #138] = 12
• COc1ccc2nc(CN3CC(CO)c4ccccc43)[nH]c(=O)c2c1 (centres unmarked) [Ex. #9] = 12.8
• O=c1[nH]c(CN2CCc3ccccc32)nc2ccc(N3CCC(CO)C3)cc12 (centres unmarked) [Ex. #104] = 2.16
• CC(C)c1ccc2nc(CN3CCc4ccccc43)[nH]c(=O)c2c1 [Ex. #81] = 0.08
